test: ASTX727 Phase 1 dose escalation study: plasma decitabine pharmacokinetics (AUC); format: in vivo, human; details: human, plasma, po, 30 mg, Cohort 5, N=19; oral DEC 30 mg alone, day −3; read-out: AUC0-t by day, D −3 (DEC alone), Geometric Mean (gCV %)
METRIC_NAME: AUC(0-t) (ng·h/mL)
The answer is to be given in ng·h/mL; state only the numeric part.

[ask] Endpoint output: AUC(0-t) of Nc1ncn([C@H]2C[C@H](O)[C@@H](CO)O2)c(=O)n1 [IV DEC, 5-aza-2′-deoxycytidine] . Value?
[reply] 15.3

* * *

assay: ASTX727 Phase 1 dose escalation study: plasma decitabine pharmacokinetics (AUC); format: in vivo, human; settings: human, plasma, po, 20 mg, Cohort 1, N=5 (extreme outlier excluded); oral DEC 20 mg alone, day −3; read-out: AUC0-t by day, D −3 (DEC alone), Geometric Mean (gCV %)
METRIC_NAME: AUC(0-t) (ng·h/mL)
# unit: ng·h/mL | format: bare number

[ask] I am curious: what AUC(0-t) value has been reported for Nc1ncn([C@H]2C[C@H](O)[C@@H](CO)O2)c(=O)n1 [IV DEC, 5-aza-2′-deoxycytidine] ?
[reply] 7.9

* * *

Assay: ASTX727 Phase 1 dose escalation study: plasma decitabine pharmacokinetics (AUC)
Type: in vivo, human
Settings: human, plasma, iv, 20 mg/m^2, Cohort 1, N=6; IV decitabine 20 mg/m^2 1-h infusion, day 1; read-out: AUC0-t by day, IV D1, Geometric Mean (gCV %)
Method: The ASTX727 Phase 1 study was a dose escalation designed to establish the recommended doses of cedazuridine and decitabine likely to achieve AUC equivalence with standard dose decitabine IV (decitabine 20 mg/m^2 IV). FIG. 1 provides an overview of the study design. In Cycle 1, each patient received a cohort-defined dose of oral decitabine on day −3, a 1-h intravenous infusion of decitabine 20 mg/m^2 on day 1, and cohort-defined doses of oral decitabine plus cedazuridine on days 2-5. […]
METRIC_NAME: AUC(0-t) (ng·h/mL)
# output: bare number, implied unit ng·h/mL

[ask] Need AUC(0-t), item "Nc1ncn([C@H]2C[C@H](O)[C@@H](CO)O2)c(=O)n1"
[reply] 159

* * *

experiment: ASTX727 Phase 1 dose escalation study: plasma decitabine pharmacokinetics (AUC); format: in vivo, human; settings: human, plasma, iv, 20 mg/m2, Cohort 3, N=6; IV decitabine 20 mg/m^2, day 1; read-out: AUC0-t by day, IV D1, Geometric Mean (gCV %)
METRIC_NAME: AUC(0-t)
Please state the number and follow it with the unit.

[ask] Could you tell me which AUC(0-t) is on file for Nc1ncn([C@H]2C[C@H](O)[C@@H](CO)O2)c(=O)n1 [IV DEC, 5-aza-2′-deoxycytidine] ?
[reply] 192 ng·h/mL

* * *

assay: ASTX727 Phase 1 dose escalation study: plasma decitabine pharmacokinetics (AUC); assay type: in vivo, human; settings: human, plasma, po, 20 mg, Cohort 2, N=6; oral DEC 20 mg alone, day −3; read-out: AUC0-t by day, D −3 (DEC alone), Geometric Mean (gCV %)
METRIC_NAME: AUC(0-t) (ng·h/mL)
The answer is to be given in ng·h/mL; state only the numeric part.

[ask] For the compound Nc1ncn([C@H]2C[C@H](O)[C@@H](CO)O2)c(=O)n1 [IV DEC, 5-aza-2′-deoxycytidine] , what AUC(0-t) is on record?
[reply] 7.49
